The measurements presented in this section are drawn from patent US20110135636A1.

Biological target: T1, recombinant human EGFR extracellular domain with 6xHis (human, UniProt P00533 25-645)
T1 construct: In-house produced; also called 6xHis EGFR ECD; soluble human EGFR ECD; not shown: 6xHis tag
Assay: SPR competition, competitor 1347
recorded.endpoint: % inhibition

antibody 992 (antibody, human IgG1, kappa, V domains shown, Chimeric mouse/human IgG1 kappa; the VL entry includes the human kappa constant region) VH: EVQLQQPGSELVRPGASVKLSCKASGYTFTSYWMHWVKQRPGQGLEWIGNIYPGSRSTNYDEKFKSKATLTVDTSSSTAYMQLSSLTSEDSAVYYCTRNGDYYVSSGDAMDYWGQGTSVTVSS VL: DIQMTQTTSSLSASLGDRVTISCRTSQDIGNYLNWYQQKPDGTVKLLIYYTSRLHSGVPSRFSGSGSGTDFSLTINNVEQEDVATYFCQHYNTVPPTFGGGTKLEIKR	7%

Request: Name the recorded % inhibition of the binder listed here: antibody 1030 (antibody, human IgG1, kappa, V domains shown, Chimeric IgG1 kappa) VH: EVQLVESGGGLVKPGGSLKLSCAASGFTFSSYALSWVRQTPERRLEWVASISGVGSTYFPDSVKGRFTMSRDNARNILYLQMSSLRSEDTAMYYCARGSDGYFYAMDYWGQGTSVTVSS VL: DIVLTQSPASLAVSLGQRATISCRASKSVSTSGYSFMHWYQLKPGQPPKLLIYLASNLESGVPARFSGSGSGTDFTLNIHPVEEEDAATYYCQHSREFPLTFGGGTKLEIKR
Result: 6%

Request: Return % inhibition (reported value) for this binder: antibody 1257 (antibody, human IgG1, kappa, V domains shown, Chimeric IgG1 kappa) VH: EVQLQQSGPELVKPGASVKIPCKTSGYTFTDYNMAWVKQSHGKSLEWIGDIIPNNGGAIYNQKFKGKATLTVDKSSSTASMELRSLTSEDTAVYFCARKNIYYRYDGAGALDYWGQGTSVTVSS VL: QIVLTQSPAIMSASPGEKVTMTCSASSSVSYIYWYQQKPGSSPRLLIYDASNLASGVPVRFSGSGSGTSYSLTISRMEAEDAATYYCQQWSSYPITFGSGTKLEIKR
Result: 21%

Request: Fill in % inhibition for record antibody 1344 (antibody, human IgG1, kappa, V domains shown, Chimeric IgG1 kappa) VH: QVQLKESGPGLVAPSQSLSITCTVSGFSLTIYGVHWVRQPPGKGLEWLGVIWAGGNTNYNSALMSRLSISKDNSKSQVFLKMNSLQTDDTAMYFCARGYGYNLDYWGQGTTLTVSS VL: DIQMTQTTSSLSASLGDRVTISCSASQGISNYLNWYQQKPDGTVKLLIYYTSSLHSGVPSRFSGSGSGTDYSLTISNLEPEDIATYYCQQYSKLPYTFGGGTKLEIKR
Result: 15%

Request: Note % inhibition for the binder shown: antibody 1284 (antibody, human IgG1, kappa, V domains shown, Chimeric IgG1 kappa) VH: QVQLQQPGAELVKPGASVKLSCKASGYTFTSDWMHWMKQRPGQGLEWIGEINPSNGRSSYNEKFKSKATLTVDKSSSTAYMQLSSLTSEDSAVYYCARIGGIYVETYWGQGTLVTVSS VL: DIVLTQSPASLAVSLGQRATISCRASQSVSTSTYSYMHWYQQKSGQPPKLLIKYASNLESGVPARFSGSGSGTDFTLNIHPVEEEDTATYYCQHSWEIPWTFGGGTKLEIKR
Result: 62%
